test system: Plasmodium berghei; assay: Screen against P. berghei liver stage (PbLuc), transformed with Luciferase, at 10uM; format: functional, HepG2; details: tested at 10 uM
Among all 69,000 compounds or so, about 8,600 (12%) showed an effect of 50% or more. Only a selection was taken, and strong results are over-represented in it overall.
measured.property: INHIBITION (%)
One number for each entry, in %.

Known INHIBITION results, listed for orientation:
O=C1N(c2cccnc2)CCC12CCCN(Cc1ccoc1)C2 (stereo not drawn): -29.3
COc1c(Br)c(CC2CC(CO)=NO2)c(Br)c2c1OCO2 (stereo not drawn): 42.4

The recorded INHIBITION for entry C1CC(CN2CCO[C@H]3[C@H](OCC4CC4)CC[C@@H]32)CCO1 equals 40.9

Hey, just so you know, these numbers are from ChEMBL document CHEMBL4513216.
